Task for the reader: assign each of the following compounds its reported GI50.
tested on: OVCAR-3; experiment: NCI tumour cell line growth inhibition, 48 h
The source made the active and inactive calls. No stated cut-off is given here; in the data, active = GI50 up to about 1.1 µM and inactive = higher.

Consider the compound "Cc1cc2c(=O)cc(-c3ccc(C(F)(F)F)cc3)oc2c(C(=O)O)c1C" and give its measured GI50. > 100 µM (inactive)

Moving on to "Cc1ccc(S(=O)(=O)NC(=O)NCC(=O)NCC(=O)O)cc1" > 100 µM (inactive)

What about this compound? "Cc1ccc(S(=O)(=O)NNS(C)(=O)=O)cc1" > 100 µM (inactive)

Now consider CN1CCCC2[C@@H]3CCC4=C(O)C(=O)CC[C@]4(C)C3CC[C@@]21C (stereo partly specified) and answer again. > 100 µM (inactive)

Same lookup for CCOC(=O)C(Cc1c(-c2[nH]c3ccccc3c2CC(NC(=O)CNC(C)=O)C(=O)OCC)[nH]c2ccccc12)NC(=O)CNC(C)=O (stereo unspecified) , please. 42.3 µM (inactive)

How about this compound: "O=C(O)CCCSc1nc2ccccc2s1" > 100 µM (inactive)

Another: "O/N=C/c1cc2c(cc1Br)OCO2" > 100 µM (inactive)

Also need Cc1ccccc1C(C#N)/C(=N/NC(N)=S)C(=O)Nc1c(C)cccc1C (stereo unspecified) , thanks. > 100 µM (inactive)

Likewise for "Nc1nc(Cl)cc(NCC2(O)CC2)n1" ? > 100 µM (inactive)

Try this compound next: O=C(O)c1c(CC(Cc2ccc3c(c2)CCCC3)C(=O)O)ccc2c1CCCC2 (stereo unspecified) > 100 µM (inactive)

Please do the same for "C[C@@H](CN1CC(=O)NC(=O)C1)N1CC(=O)NC(=O)C1" as well. 224 µM (inactive)

* * *

test system: COLO 205; assay: NCI tumour cell line growth inhibition, 48 h
Activity calls are given as the source filed them. Cut-off read from the data, not from the text of the source: active = GI50 up to about 1.1 µM and inactive = higher.
Would you kindly list GI50 for each of these molecules?

What is its GI50 for COLO 205? Entry: "Cc1[nH]c2ncn3ncnc3c2c1Cc1ccccc1" > 100 µM (inactive)

Now consider OCC1C2C=CC(O2)[C@H]1CO (some centres not stated) and answer again. > 100 µM (inactive)

Entry "O=C(COc1ccccc1)NS(=O)(=O)c1ccccc1" please > 100 µM (inactive)

Proceed to "COc1ccc(N2C(=O)c3c(c4[nH]c5ccccc5c4c4ccc(C(C)(C)C)cc34)C2=O)cc1" 37.3 µM (inactive)

Would you kindly repeat that for "CCOC(=O)CCCSCCCC(=O)CCCSCCCC(=O)OCC" ? > 100 µM (inactive)

Could you do the same for "Cc1nc(-n2nc(-c3ccccc3)cc2-c2ccccc2)sc1C(=O)/C=C/c1ccc(Cl)cc1" , please? 16.5 µM (inactive)

What do you get for COC(=O)c1cc2cc3c(c(O)c2c(=O)o1)O[C@@]1(Oc2c(O)c4c(c(O)c2[C@H]1OC1CC(OC)C(O)C(C)O1)C(=O)C=C(OC)C4=O)[C@H](O)C3 (some centres not stated) ? 1.51 µM (inactive)

* * *

system: NCI-H23; experiment: NCI tumour cell line growth inhibition, 48 h
Calls of active or inactive are those of the source. No stated cut-off is given here; in the data, active = GI50 up to about 1.1 µM and inactive = higher.
Choose one outcome from this list and give only that: active, inactive

Field: outcome | Entry: "CN(C)CCCN1c2ccccc2Sc2ccc3ccccc3c21" inactive

What would you report for "OB1OCc2ccccc21" ? inactive

Same question for "CCOC(=O)C1(C(=O)OCC)C[C@@H](C)[C@@H](O)C1" please. inactive

Thanks! And COC(=O)C12OCC34C(CC5C(C)C6=CC(=O)OC6=CC5(C)C3C(O)C1O)OC(=O)C(O)C24 (stereo unspecified) ? active

Same question for "O=S(=O)(O)C1=C2Sc3ccccc3N=C2c2ccccc2C1" please. inactive

And then "CN1CCc2nc(N)nc(-c3nc(N)nc4c3CN(C)CC4)c2C1" , what is it? inactive

* * *

system: HOP-62; assay: NCI tumour cell line growth inhibition, 48 h
The source made the active and inactive calls. No stated cut-off is given here; in the data, active = GI50 up to about 1.1 µM and inactive = higher.
Result category, one only: active, inactive

Would you mind telling me which call this test gave "Cc1[nH]n(-c2nc3c(c(=O)[nH]2)CCC3)c(=O)c1CCO" ? inactive

Another compound: "O=C(O)/C(Cl)=C(/Cl)C(=O)Nc1cccc(Cl)c1" inactive

What do we get for "O=C1c2ccccc2C(=O)N1CCCCNOCCCN1C(=O)c2ccccc2C1=O" ? inactive

Proceed to "CCCCCn1cnc2c1S(=O)(=O)N(C)C(NC(=O)c1ccccc1)=N2" inactive

Try this compound next: "COc1ccc(N2C(=O)C(=O)N(c3ccccc3[N+](=O)[O-])C2=S)cc1" inactive

Subsequent entry: COc1ccc(-c2oc3cc(OC)c(OC)c(OC)c3c(=O)c2OC)cc1OC [HEXAMETHOXYFLAVONE] inactive

Another compound to look at: "O=[N+]([O-])c1cccc2nc3ccccc3c(NCCC[N+]3([O-])CCOCC3)c12" active

Next entry: "CC(=O)/C(=C/NC(=S)c1cccnc1)C(=O)Nc1ccccc1C" inactive

And what about the compound O=C(O)C1CCCCN1CCc1c[nH]c2ccccc12 (centres undefined) ? inactive

Now try COc1ccc(CC2NCCc3cc(OC)c(OC)cc32)cc1Br (centres undefined) . inactive

Check CCOC(OC1=C(C#N)CCC1)C(CC)[Se]c1ccccc1 (centres undefined) too. inactive

Note, next up: "COC(=O)[C@H]1[C@H](C(=O)OC)[C@@H](C)c2c(ccc3c2[nH]c2ccccc23)[C@@H]1C" inactive

What do you get for "Cc1cc(N(CCC#N)CCC#N)ccc1C(/N=N/c1ccc(Cl)cc1)=N\NC(=O)c1cc(Cl)ccc1O" ? inactive

For "N#C[C@@H](c1nc2ccccc2s1)c1ncccc1[N+](=O)[O-]" then? inactive

Try "O=C1CSc2cc([N+](=O)[O-])ccc2N1" next. inactive

Now the same for "O=C(/C=C(\S/C=C(/c1ccccc1)N1CCn2c(C(=O)c3ccccc3)c(C(=O)c3ccccc3)c(C(=O)c3ccccc3)c21)C(=O)c1ccccc1)c1ccccc1" inactive

Do the same for "C/C(=N\NC(=O)c1ccccc1O)C1=CNc2ccccc2S1" please inactive

Here is the next compound: CCN(CC)CC(=O)NC1c2ccccc2Oc2c(C)cccc21 (centres undefined) inactive

Now this one: "Cc1cc(C(=O)CSC(=S)SC(C)(C)C)ccc1Cl" inactive

Item: O=C(Nc1nnc(-c2ccc(Cl)cc2)o1)C(SC(=S)N1CCCCC1)c1ccccc1 (centres undefined) inactive

Moving on to the next compound: COC(=O)C(=O)C(C(=O)C(=O)Nc1ccccc1C(=O)OC)c1nc2ccc(C(=O)c3ccccc3)cc2nc1O (centres undefined) inactive

Moving on to "OC(c1ccc(F)cc1)(c1ccc(F)cc1)C1CC1" inactive

Follow-up entry: "COc1cc(/C=C(\C)[N+](=O)[O-])cc(OC)c1" inactive

Then CNC1C(=O)C(C)C(O)(C(CC(C)C(O)/C=C/C=C/CNC(=O)C(C)(C)C(O)\C(C)=C/C=C\C=C\Cc2cnc(C)o2)OC)C12C(=O)OC2C.CNC1C(=O)C(C)C(O)(C(CC(C)C(O)/C=C/C=C/CNC(=O)C(C)(C)C(O)\C(C)=C/C=C\C=C\Cc2cnc(C)o2)OC)C12C(=O)OC2COC (centres undefined) ? inactive

What do you get for "O=C(O)/C=C/c1ccc(Oc2ccccc2C(=O)O)o1" ? inactive

# repeat for "CCOC(=O)C1(C(=O)OCC)C[C@@H](C)[C@@H](O)C1" inactive

Quick one: CCCCCC1CC=CC(NC(=O)OCc2ccccc2)C1/C=C/CCCC1OCCO1 (centres undefined) inactive

Try this compound too: CN(C)C(=S)OC(Cn1cncn1)c1ccc(Cl)cc1Cl (centres undefined) inactive

Check "CCCCCC(=O)Nc1[nH]nnc1C(N)=O" too. inactive

Thanks! And "O=C(COc1ccccc1)NS(=O)(=O)c1ccccc1" ? inactive

Next compound: CC(C)C[C@H](NC(=O)[C@H](Cc1ccccc1)NC(=O)c1cnccn1)B(O)O [BORTEZOMIB] active

// next record "Cc1ccc(/C=C/C(=O)Oc2ccc(/C=C3\CCC/C(=C\c4ccc(OC(=O)/C=C/c5ccc(C)cc5)cc4)C3=O)cc2)cc1" inactive

Next entry: Nc1ccn(C2OC(C(O)CO)C(O)C2O)c(=O)n1 (centres undefined) inactive

Same lookup for "CCOC(=O)c1cc(NC(=O)N(CCC#N)CCN(C(=O)N[C@@H](Cc2ccccc2)C(=O)N[C@@H](CC(C)C)C(=O)NC)c2ccccc2)ccc1OC" , please. inactive

Also check CCOC(=O)CCC(NC(=O)c1ccc(Oc2nc3ccc(C(F)(F)F)cc3nc2-c2ccccc2)cc1)C(=O)OCC (centres undefined) inactive

Also, "Cc1cc(C)c(C2=NO[C@@H]3[C@H]2C(=O)C=C2N(Cc4ccccc4)CCO[C@@]23O)c(C)c1" please. inactive

Consider next the compound "O=[N+]([O-])/C(C(Cl)=C(Cl)Cl)=C(/Nc1ccccc1)SCc1ccccc1" in the same way. inactive

Same read-out for "S=C(Nc1cccc(C2(N3CCCCC3)CCCCC2)c1)Nc1cccc(C2(N3CCCCC3)CCCCC2)c1" ? inactive

Can you handle "C[n+]1c2ccc(Cl)cc2nc2cc(-c3ccccc3)ccc21" next? inactive
